List of Ratio of PDL1:CD28 values.
- TARGET SYSTEM: T1, human PD-L1 (huPD-L1), full-length, stably expressed on CHO cells (human, UniProt Q9NZQ7 19-290)
- T1 construct: whole, on cells
- T1 sequence (Q9NZQ7 19-290): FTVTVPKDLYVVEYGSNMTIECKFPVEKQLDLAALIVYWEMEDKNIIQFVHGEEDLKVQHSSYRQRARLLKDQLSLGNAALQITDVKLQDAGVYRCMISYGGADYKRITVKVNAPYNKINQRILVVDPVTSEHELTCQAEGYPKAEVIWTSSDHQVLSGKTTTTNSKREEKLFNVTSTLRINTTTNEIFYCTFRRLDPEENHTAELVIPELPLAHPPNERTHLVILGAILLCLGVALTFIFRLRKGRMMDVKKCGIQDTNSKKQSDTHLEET
- ASSAY TEXT: flow cytometry; MFI on PD-L1 CHO cells over MFI on Jurkat cells (CD28)
# value in ratio; strip the unit string

BINDER	MEASUREMENT NAME	QUANTITATIVE READOUT
variant CD80 IgV-Fc E35D/M43I/M47L/V68M (Fc fusion, not shown: small tags and cut ends; a dimerising Fc or GST) VIHVTKEVKEVATLSCGHNVSVEELAQTRIYWQKDKKMVLTMISGDLNIWPEYKNRTIFDITNNLSIMILALRPSDEGTYECVVLKYEKDAFKREHLAEVTLSVKAD	Ratio of PDL1:CD28	11.1
variant CD80 IgV-Fc E35D/M47V/N48K/V68M/L85M (Fc fusion, not shown: small tags and cut ends; a dimerising Fc or GST) VIHVTKEVKEVATLSCGHNVSVEELAQTRIYWQKDKKMVLTMMSGDVKIWPEYKNRTIFDITNNLSIMILALRPSDEGTYECVVMKYEKDAFKREHLAEVTLSVKAD	Ratio of PDL1:CD28	31.1

Identify measured Ratio of PDL1:CD28 associated with variant CD80 IgV-Fc E24D/E35D/M47L/V68M/E95V/L97Q (Fc fusion, not shown: small tags and cut ends; a dimerising Fc or GST) VIHVTKEVKEVATLSCGHNVSVEDLAQTRIYWQKDKKMVLTMMSGDLNIWPEYKNRTIFDITNNLSIMILALRPSDEGTYECVVLKYEKDAFKRVHQAEVTLSVKAD
1270

Identify measured Ratio of PDL1:CD28 associated with variant CD80 IgV-Fc E35D/D46E/M47L/V68M/T79M/L85M/L97Q (Fc fusion, not shown: small tags and cut ends; a dimerising Fc or GST) VIHVTKEVKEVATLSCGHNVSVEELAQTRIYWQKDKKMVLTMMSGELNIWPEYKNRTIFDITNNLSIMILALRPSDEGMYECVVMKYEKDAFKREHQAEVTLSVKAD
325
